Molecular target: Bcat-Halo (UniProt P35222)
Sequence (P35222 whole entry): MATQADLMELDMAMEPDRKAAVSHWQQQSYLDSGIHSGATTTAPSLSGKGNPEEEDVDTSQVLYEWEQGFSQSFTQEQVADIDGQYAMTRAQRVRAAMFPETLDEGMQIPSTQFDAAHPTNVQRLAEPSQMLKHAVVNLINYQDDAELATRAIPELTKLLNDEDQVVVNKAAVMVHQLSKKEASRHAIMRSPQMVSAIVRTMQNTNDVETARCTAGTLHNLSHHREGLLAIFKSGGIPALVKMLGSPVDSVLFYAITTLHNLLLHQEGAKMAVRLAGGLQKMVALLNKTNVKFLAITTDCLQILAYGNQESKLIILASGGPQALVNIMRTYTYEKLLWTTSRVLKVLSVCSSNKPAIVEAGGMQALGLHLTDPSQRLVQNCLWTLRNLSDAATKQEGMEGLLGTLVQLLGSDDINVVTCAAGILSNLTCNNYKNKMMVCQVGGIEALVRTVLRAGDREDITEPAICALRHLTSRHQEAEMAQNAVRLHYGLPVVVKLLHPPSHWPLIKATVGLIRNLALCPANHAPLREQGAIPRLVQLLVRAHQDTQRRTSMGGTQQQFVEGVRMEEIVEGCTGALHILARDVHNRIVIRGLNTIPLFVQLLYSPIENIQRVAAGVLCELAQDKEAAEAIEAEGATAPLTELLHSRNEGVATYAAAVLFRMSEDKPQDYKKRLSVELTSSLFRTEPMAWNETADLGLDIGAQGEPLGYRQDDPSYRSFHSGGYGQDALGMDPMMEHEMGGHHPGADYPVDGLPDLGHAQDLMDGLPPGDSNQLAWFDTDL
Test: NanoBRET Abs IC50 in HEK293 cells; Bcat-Halo, competitor TCF4-Luc
Starred links: 1 amine or outer side, 2 acyl side, 3 side chain; linkers in the order of their positions; H or OH if unused. Positions of bridges follow the written chain, without caps; N, C: chain ends. Non-standard residues stand in square brackets, D forms with d. Primed or numbered codes have the meaning given here. B5(4) = 2,2-bis(4-pentenyl)glycine = 2-amino-2-(pent-4-en-1-yl)hept-6-enoic acid (stitching residue), C=CCCCC(CCCC=C)(N[*:1])C(=O)[*:2]; Bta = N[C@@H](Cc1csc2ccccc12)C(=O)O; αAllylPro = C=CC[C@@]1(C(=O)O)CCCN1; tBuAla = CC(C)(C)C[C@H](N)C(=O)O; S8 = C=CCCCCCC[C@](C)(N)C(=O)O

Binder | IC50 / µM
Ac-[αAllylPro]D[tBuAla][B5(4)]DEAAFN[S8]F[Bta]Q-NH2 (staple 1-4, 4-11) [I-677] | 6.7
